All figures here come from patent EP1731520A1.

- target-of-assay: human adenosine A1 receptor (Homo sapiens)
- Sequence (P30542 whole entry): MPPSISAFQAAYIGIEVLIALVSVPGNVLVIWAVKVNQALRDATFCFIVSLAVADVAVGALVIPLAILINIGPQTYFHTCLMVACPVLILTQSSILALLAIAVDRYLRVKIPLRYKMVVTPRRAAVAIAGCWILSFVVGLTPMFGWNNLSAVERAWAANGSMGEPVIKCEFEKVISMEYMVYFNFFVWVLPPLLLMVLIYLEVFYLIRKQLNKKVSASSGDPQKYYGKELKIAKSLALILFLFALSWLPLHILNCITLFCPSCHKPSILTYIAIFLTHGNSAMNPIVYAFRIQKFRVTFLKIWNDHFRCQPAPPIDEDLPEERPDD
- experimental-protocol: Yeast β-Galactosidase reporter gene assay (strain CY12660): inhibition of NECA-induced β-Galactosidase activity
- condition: read-out: Al Yeast IC50; Table 10, Effect of N6-Substituent
observable: IC50 (µM)
Just the number please, in µM, no unit attached.

Req: If you can, please state the reported IC50 value of Cc1[nH]c2nc(-c3ccccc3)nc(NCCCO)c2c1C .
Resp: 3.71

----------
- target-of-assay: human A3 receptor subtype (Homo sapiens)
- experimental-protocol: Adenosine 3 receptor competition radioligand binding, [125I] AB-MECA, HEK293 membranes
- condition: read-out: Binding Ki (nM) A3; Table 13
observable: Ki (nM)
Just the number please, in nM, no unit attached.

Req: If you can, please state the reported Ki value of Cc1[nH]c2nc(-c3ccccc3)nc(NCCCNC(=O)CCN)c2c1C .
Resp: 507

----------
Each entry below carries its reported Ki.
- target-of-assay: UniProt P29275
- experimental-protocol: Adenosine 2b receptor subtype competition radioligand binding, [3H] DPCPX, HEK293 membranes
Just the number please, in nM, no unit attached.

# count of solved cases: 3
{"sample-smiles": "O[C@H]1CC[C@H](Nc2nc(-c3cccc(F)c3)nc3[nH]ccc23)CC1", "quantitative-result": 802}
{"sample-smiles": "O[C@H]1CC[C@H](Nc2nc(-c3ccncc3)nc3[nH]ccc23)CC1", "quantitative-result": 1030}
{"sample-smiles": "O[C@H]1CC[C@H](Nc2nc(-c3cccc(Cl)c3)nc3[nH]ccc23)CC1", "quantitative-result": 530}

Now let's try a different one.
Req: If you can, please state the reported Ki value of O[C@H]1CC[C@H](Nc2nc(-c3ccccc3)nc3[nH]ccc23)CC1 .
Resp: 2310

----------
- target-of-assay: human A1 receptor subtype (Homo sapiens, UniProt P30542)
- Sequence (P30542 whole entry): as above
- condition: read-out: Binding Ki (nM) A1; Table 13, Profile of Selective Adenosine Antagonists
observable: Ki (nM)
Just the number please, in nM, no unit attached.

Req: If you can, please state the reported Ki value of Cc1[nH]c2nc(-c3ccccc3)nc(NCCCNC(=O)CCN)c2c1C .
Resp: 75

----------
Each entry below carries its reported Ki.
- target-of-assay: human A2b receptor subtype (Homo sapiens)
- Sequence (P29275 whole entry): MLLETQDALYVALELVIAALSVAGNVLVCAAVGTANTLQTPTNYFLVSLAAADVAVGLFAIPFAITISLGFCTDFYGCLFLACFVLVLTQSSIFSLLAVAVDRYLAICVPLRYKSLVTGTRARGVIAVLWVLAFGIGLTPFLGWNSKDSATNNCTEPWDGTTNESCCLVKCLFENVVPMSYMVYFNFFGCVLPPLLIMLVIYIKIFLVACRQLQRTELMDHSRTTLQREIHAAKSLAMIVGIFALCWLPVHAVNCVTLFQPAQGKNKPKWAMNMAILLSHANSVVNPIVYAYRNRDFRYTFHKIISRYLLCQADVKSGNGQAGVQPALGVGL
- experimental-protocol: Adenosine 2b receptor subtype competition radioligand binding, [3H] DPCPX, HEK293 membranes
- condition: read-out: Binding Ki (nM) A2b; Table 13
Just the number please, in nM, no unit attached.

{"sample-smiles": "Cc1[nH]c2nc(-c3ccccc3)nc(NCCCNC(=O)CCN)c2c1C", "Ki, nM": 3.4}

Req: If you can, please state the reported Ki value of Cc1[nH]c2nc(-c3ccccc3)nc(NCCCNC(=O)CN)c2c1C .
Resp: 710

----------
Each entry below carries its reported pKi.
- target-of-assay: human A3 receptor subtype (Homo sapiens, UniProt P0DMS8)
- Sequence (P0DMS8 whole entry): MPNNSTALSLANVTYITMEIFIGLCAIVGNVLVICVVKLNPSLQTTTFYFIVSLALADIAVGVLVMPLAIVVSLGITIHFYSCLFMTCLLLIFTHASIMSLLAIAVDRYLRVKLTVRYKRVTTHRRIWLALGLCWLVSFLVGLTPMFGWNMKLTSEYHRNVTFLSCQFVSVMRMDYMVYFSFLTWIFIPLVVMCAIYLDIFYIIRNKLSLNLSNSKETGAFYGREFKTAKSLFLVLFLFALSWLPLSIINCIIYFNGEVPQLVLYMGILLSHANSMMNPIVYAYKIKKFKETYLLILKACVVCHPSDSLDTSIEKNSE
- experimental-protocol: Adenosine 3 receptor competition radioligand binding, [125I] AB-MECA, HEK293 membranes
Notebook: values listed as pKi are -log10 of the concentration (mol/L).

# count of solved cases: 3
{"compound": "Cc1[nH]c2nc(-c3ccccc3)nc(NCCCNC(=O)CN)c2c1C [Compound 1316]", "pKi": 7.01}
{"compound": "O[C@H]1CC[C@H](Nc2nc(-c3cccc(F)c3)nc3[nH]ccc23)CC1 [Compound 1319]", "pKi": 6.57}
{"compound": "O[C@H]1CC[C@H](Nc2nc(-c3cccc(Cl)c3)nc3[nH]ccc23)CC1 [Compound 1320]", "pKi": 6.38}

Req: If you can, please state the reported pKi value of O[C@H]1CC[C@H](Nc2nc(-c3ccccc3)nc3[nH]ccc23)CC1 [Compound 1318] .
Resp: 6.20
